Test system: HIV-1 IIIB
Assay: Inhibition of HIV-1 IIIB replication in MT-2 cells
Format: cell-based
Conditions: Human immunodeficiency virus 1, IIIB, MT2
pEC50: −log10 of the molar value.

molecule: N#Cc1ccc(Nc2cc(Oc3ccc4cc(C#N)ccc4c3)c([N+](=O)[O-])cc2[N+](=O)[O-])cc1 [compound 17]
pEC50: < 7.00

* * *

EC50: recorded values
Test system: HIV-1 RTMDR
Assay: Multi-RTI-resistant HIV-1 RTMDR infection in TZM-bl cell line
Assay type: cell-based
Settings: Human immunodeficiency virus 1, TZM-bl
property-name: EC50 (nM)

compound: Cc1cc(I)cc(C)c1Oc1ccc(N)c(Nc2ccc(C#N)cc2)n1 [13a]
assay-target: HIV-1 RTMDR
observed-result: 5.13
//
compound: Cc1cc(/C=C/C#N)cc(C)c1Oc1ccc([N+](=O)[O-])c(Nc2ccc(C#N)cc2)n1 [11m]
assay-target: HIV-1 RTMDR
observed-result: 14.8
//
compound: Cc1cc(C#CC2CC2)cc(C)c1Oc1ccc(N)c(Nc2ccc(C#N)cc2)n1 [13e]
assay-target: HIV-1 RTMDR
observed-result: 121
//
compound: CC(=O)CCc1cc(C)c(Oc2ccc(N)c(Nc3ccc(C#N)cc3)n2)c(C)c1 [13k]
assay-target: HIV-1 RTMDR
observed-result: 3.2
//
compound: Cc1cc(I)cc(C)c1Oc1ccc([N+](=O)[O-])c(Nc2ccc(C#N)cc2)n1 [11a]
assay-target: HIV-1 RTMDR
observed-result: 94.3
//
compound: Cc1cc(/C=C/C#N)cc(C)c1Oc1ccc(N)c(Nc2ccc(C#N)cc2)n1 [13m]
assay-target: HIV-1 RTMDR
observed-result: 0.59
//
compound: C#Cc1cc(C)c(Oc2ccc([N+](=O)[O-])c(Nc3ccc(C#N)cc3)n2)c(C)c1 [11f]
assay-target: HIV-1 RTMDR
observed-result: 215
//
compound: C=CCc1cc(C)c(Oc2ccc(N)c(Nc3ccc(C#N)cc3)n2)c(C)c1 [13c]
assay-target: HIV-1 RTMDR
observed-result: 15.4
//
compound: C#Cc1cc(C)c(Oc2ccc(N)c(Nc3ccc(C#N)cc3)n2)c(C)c1 [13f]
assay-target: HIV-1 RTMDR
observed-result: 9
//
compound: Cc1cc(C#N)cc(C)c1Oc1ccc(N)c(Nc2ccc(C#N)cc2)n1 [compound 3, reference compound]
assay-target: HIV-1 RTMDR
observed-result: 0.96

Numbers sourced from paper PMC3050082.
